Test system: HEK-293T
Assay: Multiplex assay against HEK293T
Assay type: toxicity, cell-based
Conditions: human, 24 h, 1 µM, compound concentration 1 uM, replicate 1
observed.property: Population Normal (%)
Provide the reading as a plain figure in %.

Query: Population Normal (%); subject: Cl.Oc1ccc2c3c1O[C@H]1c4[nH]c5c(c4C[C@@]4(O)[C@@H](C2)N(CC2CC2)CC[C@]314)C[C@@]1(O)[C@H]2Cc3ccc(O)c4c3[C@@]1(CCN2CC1CC1)[C@H]5O4 87

Entry C=CCn1c(=O)c2cnc(Nc3ccc(N4CCN(C)CC4)cc3)nc2n1-c1cccc(C(C)(C)O)n1 please 90

Entry O=C(Nc1ccc(Cl)cc1)Nc1cccc(-c2cccc(N3CCCC3)n2)c1 please 88

Entry CCOC(=O)c1c(C)[nH]c2ccc3c(c12)CN1CCc2cc(OC)ccc2C1O3 (stereo not drawn) please 92

Entry CN1C2CCC1CC(OC(c1ccc(F)cc1)c1ccc(F)cc1)C2.Cl (stereo not drawn) please 85

Continuing:
Query: Population Normal (%); subject: COc1cc2ncnc(Nc3ccc(F)c(Cl)c3)c2cc1NC(=O)/C=C/CN1CCCCC1 [DACOMITINIB ANHYDROUS] 77

Entry S=C(NCCCc1c[nH]cn1)NCCCN(Cc1ccc(Cl)c(Cl)c1)c1ccc(Br)cn1 please 84

Entry CCN1CCN(c2ccc(Nc3cc(N(C)C(=O)Nc4c(Cl)c(OC)cc(OC)c4Cl)ncn3)cc2)CC1 please 80

====

# Population Pyknosed Nuclei (%) values compiled below
Test system: Fibroblast
Assay: Multiplex assay against human fibroblast
Format: toxicity, cell-based
Conditions: 48 h, 10 µM, compound concentration 10 uM, replicate 2
Provide the reading as a plain figure in %.

Guide cases for Population Pyknosed Nuclei (%), answers given:
Query: Population Pyknosed Nuclei (%); subject: Cc1cc(C)c(S(=O)(=O)N(Cc2ccc(-c3cccc(S(C)(=O)=O)c3)cc2)Cc2ccc(C(F)(F)F)o2)c(C)c1 1

Entry CCOc1cc2ncc(C#N)c(Nc3ccc(OCc4ccccn4)c(Cl)c3)c2cc1NC(=O)/C=C/CN(C)C [NERATINIB] please 19

Entry Cl.Oc1ccc2c3c1O[C@H]1c4[nH]c5c(c4C[C@@]4(O)[C@@H](C2)N(CC2CC2)CC[C@]314)C[C@@]1(O)[C@H]2Cc3ccc(O)c4c3[C@@]1(CCN2CC1CC1)[C@H]5O4 please 3

Entry O=C(Nc1ccc(-n2nc(-c3cccnc3)cc2C(F)(F)F)cn1)c1ccc(-c2ccccc2)c(F)c1 [BI 2049] please 0

Entry COc1cc(N2CCN(C)CC2)ccc1Nc1ncc2c(n1)N(C)c1ccccc1C(=O)N2C please 2

Entry CCOc1cc(C(=O)N2CCC(N3CCN(C)CC3)CC2)ccc1Nc1ncc2c(n1)N(C1CCCC1)c1ccccc1C(=O)N2C please 18

Proceed to the following item.
Query: Population Pyknosed Nuclei (%); subject: O=C(Nc1ccc(Cl)cc1)Nc1cccc(-c2cccc(N3CCCC3)n2)c1 73

====

Test system: HEK-293T
Test: Multiplex assay against HEK293T
Assay type: toxicity, cell-based
Conditions: human, 12 h, 1 µM, compound concentration 1 uM, replicate 1
Where Population Membrane Permeable-Phenotype (%) equals or exceeds 5%, the correct label is T; where it does not, the label is F.

Form field: Population Membrane Permeable-Phenotype (%) at least 5%? Entry: CCc1cccc(CC)c1NC(=O)c1nn(C)c2c1CCc1cnc(Nc3ccc(N4CCN(C)CC4)cc3OC)nc1-2 T

Entry Cc1ccc(C(=O)Nc2cccc(C(F)(F)F)c2)cc1Nc1nc(-c2cccnc2)nc2c1cnn2C please F

Entry CCOC(=O)c1c(C)[nH]c2ccc3c(c12)CN1CCc2cc(OC)ccc2C1O3 (stereo unspecified) please F

Entry CCn1c(=O)c(-c2ccc(-c3cncs3)cc2Cl)cc2cnc(Nc3ccc(N4CCN(C)CC4)cc3)nc21 please F

Entry CCOc1cc2ncc(C#N)c(Nc3ccc(OCc4ccccn4)c(Cl)c3)c2cc1NC(=O)/C=C/CN(C)C [NERATINIB] please F

Entry Cl.O=c1c2cccn2c2ccccc2n1CCCN1CCC(c2ccc(Cl)cc2)CC1 please F

Entry Cc1cn(-c2cc(NC(=O)c3ccc(C)c(Nc4nccc(-c5cccnc5)n4)c3)cc(C(F)(F)F)c2)cn1 [NILOTINIB] please F

Entry CN(C)C(=O)C(CCN1CCC(O)(c2ccc(Cl)cc2)CC1)(c1ccccc1)c1ccccc1.Cl [LOPERAMIDE HYDROCHLORIDE] please F

Entry CCc1cccc(CC)c1NC(=O)c1nn(C)c2c1CCc1cnc(Nc3ccc(C(=O)NC4CCN(C)CC4)cc3OC(F)(F)F)nc1-2 please F
